Test: Compound was evaluated for the biological half life of elimination in feces
Type: ADME, tissue-based
Conditions: faeces
Measured Metric: half-life

>>> df
                               entry_smiles  assay_value
0  O=C1NC(=O)C(c2ccc(C(F)(F)F)cc2)(c2ccc(C(F)(F)F)cc2)N1     3.9 days

* * *

Assay: Compound was evaluated for the average plasma levels at 24 hours, after administration of intravenous route
Format: ADME
Conditions: read-out: Plasma level
Measured Metric: concentration at 24 h (ng/mL)

>>> df
                               entry_smiles  assay_value
0  O=C1NC(=O)C(c2ccc(C(F)(F)F)cc2)(c2ccc(C(F)(F)F)cc2)N1         9400

* * *

Experiment: Compound at the dose 10 mg/kg administered intraperitoneally was evaluated for the excretion rate in rats in 7 days through urine
Type: ADME, organism-based
Design: dose 10 mg/kg, route intraperitoneal
Settings: rat, ip, read-out: Excretion
Measured Metric: dose excreted at 168 h (%)

                               entry_smiles  assay_value
0  O=C1NC(=O)C(c2ccc(C(F)(F)F)cc2)(c2ccc(C(F)(F)F)cc2)N1          0.3

* * *

Assay: Compound was evaluated for the toxicity in mouse on 7 th day when administered through Oral route
Format: organism-based
Settings: in vivo
Measured Metric: LD50 at 7 days (mg/kg)

>>> print(df.to_string())
                               entry_smiles  measured_metric  units  assay_value
0  O=C1NC(=O)C(c2ccc(C(F)(F)F)cc2)(c2ccc(C(F)(F)F)cc2)N1   LD50 at 7 days  mg/kg          100

* * *

Assay: Compound was evaluated for the plasma biological half life in the Swiss webster mouse when administered at the […]
Type: ADME, organism-based
Measured Metric: half-life (h)

>>> print(df.to_string())
                               entry_smiles  units  assay_value
0  O=C1NC(=O)C(c2ccc(C(F)(F)F)cc2)(c2ccc(C(F)(F)F)cc2)N1      h          115

* * *

Assay: Compound was evaluated for the tissue levels after 1 hour of administration of 5 mg/kg through intravenous route, the given data is tissue/plasma ratios kidneys
Assay type: ADME, organism-based, Kidney
Parameters: dose 5 mg/kg, route intravenous
Measured Metric: Kp at 1 h

>>> df
                               entry_smiles  measured_metric  assay_value
0  O=C1NC(=O)C(c2ccc(C(F)(F)F)cc2)(c2ccc(C(F)(F)F)cc2)N1        Kp at 1 h         0.61

* * *

Test: Compound was evaluated for the average plasma levels at 24 hours, after administration of intraperitoneal route
Assay type: ADME
Settings: ip, read-out: Plasma level
Measured Metric: concentration at 24 h (ng/mL)

In [3]: df
Out[3]:
                               entry_smiles        measured_metric  assay_value
0  O=C1NC(=O)C(c2ccc(C(F)(F)F)cc2)(c2ccc(C(F)(F)F)cc2)N1  concentration at 24 h        11000

* * *

Test: Compound was evaluated for the tissue levels after 1 hour of administration of 5 mg/kg through intravenous route, the given data is tissue/plasma ratios Muscle
Type: ADME, organism-based
Set-up: dose 5 mg/kg, route intravenous
Measured Metric: Kp at 1 h

>>> print(df.to_string())
                               entry_smiles  assay_value
0  O=C1NC(=O)C(c2ccc(C(F)(F)F)cc2)(c2ccc(C(F)(F)F)cc2)N1         0.41
